# study-target: UniProt:O95551
# method: SUMO hTDP2cat fluorescence-based biochemical assay
measured-quantity: pIC50
Worth noting: pIC50 values are minus log10 of concentrations stated in mol/L.

These solved cases illustrate the format of a correct answer.
# cpd-smiles, readout-value
rows = [
    ("N#Cc1ccc2cc3c(=O)n(-c4ccc(CNP(=O)(Oc5ccccc5)Oc5ccccc5)cc4)c(=O)nc-3n(-c3ccc(O)cc3)c2c1", 6.92),
    ("N#Cc1ccc2cc3c(=O)n(-c4ccc(NC(=O)Oc5ccccc5)cc4)c(=O)nc-3n(-c3ccc(O)cc3)c2c1", 7.23),
    ("N#Cc1ccc2cc3c(=O)n(-c4ccc(NP(=O)(Oc5ccccc5)Oc5ccccc5)cc4)c(=O)nc-3n(-c3ccc(O)cc3)c2c1", 6.73),
    ("N#Cc1ccc2cc3c(=O)n(-c4cccc(NP(=O)(Oc5ccccc5)Oc5ccccc5)c4)c(=O)nc-3n(-c3ccc(O)cc3)c2c1", 6.56),
    ("N#Cc1ccc2cc3c(=O)[nH]c(=O)nc-3n(-c3ccc(Oc4ccc(NC(=O)Oc5ccccc5)cc4)cc3)c2c1", 6.10),
]

Prompt line: Please report the recorded pIC50 for N#Cc1ccc2cc3c(=O)n(-c4cccc(NC(=O)Oc5ccccc5)c4)c(=O)nc-3n(-c3ccc(O)cc3)c2c1 .
Response line: 6.92

* * *

# study-target: hTdp2 (Rec) (Homo sapiens (Human))
# method: SUMO hTDP2cat fluorescence-based biochemical assay
# conditions-used: SUMO hTDP2cat 3.13 pM, substrate 0.25 μM, 25° C., 60 minutes; read-out: hTdp2 (Rec) IC50
This section presents compounds with their documented pIC50 values.
Worth noting: pIC50 values are minus log10 of concentrations stated in mol/L.

These solved cases illustrate the format of a correct answer.
# cpd-smiles, pIC50
rows = [
    ("N#Cc1ccc2cc3c(=O)[nH]c(=O)nc-3n(-c3ccc(OCc4cccc(B(O)O)c4)cc3)c2c1", 7.41),
    ("CC1(C)OB(c2cccc(Oc3ccc(-n4c5nc(=O)[nH]c(=O)c-5cc5ccc(C#N)cc54)cc3)c2)OC1(C)C", 8.08),
]

Prompt line: Please report the recorded pIC50 for O=c1nc2n(-c3ccc(Oc4cccc(B(O)O)c4)cc3)c3cc(Cl)ccc3cc-2c(=O)[nH]1 .
Response line: 8.41

Prompt line: Please report the recorded pIC50 for N#Cc1ccc2cc3c(=O)[nH]c(=O)nc-3n(-c3ccc(OCc4ccc(B(O)O)cc4)cc3)c2c1 .
Response line: 6.62

* * *

# study-target: hTdp2 (Rec) (Homo sapiens (Human), UniProt O95551)
# Sequence (O95551 113-362): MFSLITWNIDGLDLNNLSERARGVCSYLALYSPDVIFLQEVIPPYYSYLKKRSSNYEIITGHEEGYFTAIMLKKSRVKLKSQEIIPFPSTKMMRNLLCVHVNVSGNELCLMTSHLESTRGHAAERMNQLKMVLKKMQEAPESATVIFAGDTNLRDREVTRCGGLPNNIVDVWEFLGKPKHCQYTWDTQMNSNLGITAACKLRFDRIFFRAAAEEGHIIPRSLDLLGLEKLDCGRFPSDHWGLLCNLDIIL
# method: SUMO hTDP2cat fluorescence-based biochemical assay
# conditions-used: SUMO hTDP2cat 3.13 pM, substrate 0.25 μM, 25° C., 60 minutes; read-out: hTdp2 (Rec) IC50
This section presents compounds with their documented IC50 values.

These solved cases illustrate the format of a correct answer.
# cpd-smiles, IC50
data = [
    ("N#Cc1ccc2cc3c(=O)[nH]c(=O)nc-3n(-c3ccc(Oc4cccc(B(O)O)c4)cc3)c2c1", "5.01 nM"),
    ("CC1(C)OB(c2ccc(COc3ccc(-n4c5nc(=O)[nH]c(=O)c-5cc5ccc(C#N)cc54)cc3)cc2)OC1(C)C", "359 nM"),
]

Okay, now this compound:
Prompt line: Please report the recorded IC50 for CC1(C)OB(c2cccc(COc3ccc(-n4c5nc(=O)[nH]c(=O)c-5cc5ccc(C#N)cc54)cc3)c2)OC1(C)C .
Response line: 47 nM
